These entries and their values trace back to ChEMBL document CHEMBL4350963.

- assay_method_text: Solubility of the compound in fasted state simulated intestinal fluid measured after 4 hrs using crystalline sample
- Format: physicochemical
value_kind: solubility thermodynamic at 4 h (µg/mL)
Numbers only, in µg/mL.

Entry `CC(=O)N1CCC(C(=O)N2N=CC[C@H]2c2ccccc2)CC1` has what solubility thermodynamic at 4 h?
7400

----------
- assay_method_text: Tmax in minipig at 2 mg/kg, po
- Assay type: ADME, organism-based, Sus scrofa
- condition_info: pig, in vivo
value_kind: Tmax (h)
Numbers only, in h.

Entry `Cc1nnc(N2CCC(C(=O)N3N=CC[C@H]3c3cc(F)cc(F)c3)CC2)o1` has what Tmax?
1.33

----------
- assay_method_text: Cmax in rat at 2 mg/kg, po
- Type: ADME, organism-based
- Design: dose 2 mg/kg, route oral
- condition_info: in vivo
Label key: Yes means Cmax under 400 ng/mL; No means Cmax of 400 ng/mL or more.

These recorded examples may help you get a feel for the data.
{"molecule": "N#Cc1cnc(N2CCC(C(=O)N3N=CC[C@H]3c3cc(F)cc(F)c3)CC2)cn1", "assigned_class": "Yes"}
{"molecule": "CC(=O)N1CCC(C(=O)N2N=CC[C@H]2c2ccccc2)CC1", "assigned_class": "No"}
{"molecule": "CC(C)(C)C(=O)N1N=CCC1c1cocn1 (configuration not stated)", "assigned_class": "Yes"}

Find out if reported Cmax for CC(C)(C)C(=O)N1N=CCC1c1cccnc1 (configuration not stated) is less than 400 ng/mL
Yes

Another molecule: `Cc1nnc(N2CCC(C(=O)N3N=CC[C@H]3c3cc(F)cc(F)c3)CC2)o1`
No

Another molecule: `N#Cc1cc(N2CCC(C(=O)N3N=CC[C@H]3c3cc(F)cc(F)c3)CC2)ncn1`
Yes

Another molecule: O=C(C1CCOCC1)N1N=CCC1c1ccccc1 (configuration not stated)
Yes

----------
- assay_method_text: AUC (0 to infinity) in mouse at 2 mg/kg, iv
- Assay type: ADME, organism-based
- Parameters: dose 2 mg/kg, time infinity, route intravenous
- condition_info: in vivo
value_kind: AUC(0-inf) (ng·h/mL)
One number for each entry, in ng·h/mL.

Entry `Cc1nnc(N2CCC(C(=O)N3N=CC[C@H]3c3cc(F)cc(F)c3)CC2)o1` has what AUC(0-inf)?
1100

----------
- assay_method_text: Oral bioavailability in rat at 2 mg/kg
- Type: ADME, organism-based
- condition_info: in vivo
value_kind: bioavailability (%)
Answers are plain numbers, in %.

Check out these entries, answers already filled in.
{"smiles_repr": "N#Cc1cnc(N2CCC(C(=O)N3N=CC[C@H]3c3cc(F)cc(F)c3)CC2)cn1", "bioavailability / %": 99}
{"smiles_repr": "N#Cc1cc(N2CCC(C(=O)N3N=CC[C@H]3c3cc(F)cc(F)c3)CC2)ncn1", "bioavailability / %": 88}

Entry `Cc1nnc(N2CCC(C(=O)N3N=CC[C@H]3c3cc(F)cc(F)c3)CC2)o1` has what bioavailability?
130

----------
- assay_method_text: AUC (0 to infinity) in rat at 1 mg/kg, iv
- Assay type: ADME, organism-based
- Set-up: dose 1 mg/kg, time infinity, route intravenous
- condition_info: in vivo
Label key: condition met means AUC(0-inf) under 400 ng·h/mL; condition not met means AUC(0-inf) of 400 ng·h/mL or more.

These recorded examples may help you get a feel for the data.
{"compound": "CC(=O)N1CCC(C(=O)N2N=CC[C@H]2c2ccccc2)CC1", "assigned_class": "condition not met"}
{"compound": "Cc1nnc(N2CCC(C(=O)N3N=CC[C@H]3c3ccccc3)CC2)o1", "assigned_class": "condition not met"}
{"compound": "O=C(c1c[nH]nn1)N1CCC(C(=O)N2N=CCC2c2ccccc2)CC1 (centres undefined)", "assigned_class": "condition not met"}
{"compound": "O=C(c1cocn1)N1CCC(C(=O)N2N=CCC2c2ccccc2)CC1 (centres undefined)", "assigned_class": "condition met"}
{"compound": "Cc1nnc(N2CCC(C(=O)N3N=CC[C@H]3c3cc(F)cc(F)c3)CC2)o1", "assigned_class": "condition not met"}

Now consider the entry below.
Find out if reported AUC(0-inf) for O=C(c1cn[nH]c1)N1CCC(C(=O)N2N=CCC2c2ccccc2)CC1 (centres undefined) is less than 400 ng·h/mL
condition met
